Hey, just so you know, these numbers are from patent US20200000897A1.

# targetDesc: T1, HLA-A*03:01 (human)
# T1 construct: MHC class I monomer first loaded with a UV-sensitive peptide that is cleaved by UV irradiation and exchanged for the test peptide; captured on streptavidin plates; also called peptide-receptive MHC molecules
# assayInfo: UV-ligand exchange, anti-b2m ELISA; peptide exchange yield grade (>10% +, >20% ++, >50% +++, >75% ++++)
endpointName: peptide exchange yield

Below, 6 binders whose answers are already recorded.
TVFLSKYLKK: 50 to 75%
GMYEYGSIEK: > 75%
IINESLLFY: 50 to 75%
TVYVAMCHKF: > 75%
KIFQGQINK: > 75%
IIFIPATILLK: > 75%

Requested read-out: peptide exchange yield. Entry: `TTYYPSPLNK`
50 to 75%

Requested read-out: peptide exchange yield. Entry: `ATSPPASVR`
> 75%

Requested read-out: peptide exchange yield. Entry: `AVYNYPEGAAY`
> 75%

Requested read-out: peptide exchange yield. Entry: `SLFEGIYTIK`
> 75%

Requested read-out: peptide exchange yield. Entry: `SLFPYYNNLY`
10 to 20%

Requested read-out: peptide exchange yield. Entry: `RTIDRSVFK`
> 75%

Requested read-out: peptide exchange yield. Entry: `RLRDYISSLK`
> 75%
